# measured_target: T1, RBFOX1 RRM (Homo sapiens, UniProt Q9NWB1 109-208)
# T1 sequence: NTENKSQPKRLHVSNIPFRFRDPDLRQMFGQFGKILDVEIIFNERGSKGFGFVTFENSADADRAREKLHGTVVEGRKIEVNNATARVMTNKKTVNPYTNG
# protocol_summary: EMSA; HiTS-Eq, 1 nM pool, 10 min; buffer printed only for the single-RNA assays: 10 mM Tris pH 7.5, 150 mM NaCl, 3.4 mM EDTA, 0.001% NP-40, 30 C
# particulars: tags: His6 N-terminal (pET28a); label: 5' 32P
Whole data set: some 16,000 sequences, median “ka relative to ugcaugu” near 0.0091, cut for the highest 2% near 0.032. The list comes from a sample in which the highest values are over-represented; it also holds close analogues and randomly drawn sequences.
observable: binding signal

Q: Entry under review: UUGUUUG (DNA:RNA) RNA: GGGAGACCGGAAUUCAGAUUGUCCUUGUUUGUUAAAUCCCGUCGUAGCCACCA DNA 1: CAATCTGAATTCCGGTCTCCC DNA 2: TGGTGGCTACGACGGGATT . Reported binding signal?
Ans: 0.0392 KA relative to UGCAUGU

Q: Entry under review: AACCGUA (DNA:RNA) RNA: GGGAGACCGGAAUUCAGAUUGUCCAACCGUAUUAAAUCCCGUCGUAGCCACCA DNA 1: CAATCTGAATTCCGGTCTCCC DNA 2: TGGTGGCTACGACGGGATT . Reported binding signal?
Ans: 0.00191 KA relative to UGCAUGU

Q: Entry under review: CUCACCC (DNA:RNA) RNA: GGGAGACCGGAAUUCAGAUUGUCCCUCACCCUUAAAUCCCGUCGUAGCCACCA DNA 1: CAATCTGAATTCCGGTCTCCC DNA 2: TGGTGGCTACGACGGGATT . Reported binding signal?
Ans: 0.00285 KA relative to UGCAUGU

Q: Entry under review: AGAAAUU (DNA:RNA) RNA: GGGAGACCGGAAUUCAGAUUGUCCAGAAAUUUUAAAUCCCGUCGUAGCCACCA DNA 1: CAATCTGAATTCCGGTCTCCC DNA 2: TGGTGGCTACGACGGGATT . Reported binding signal?
Ans: 0.00368 KA relative to UGCAUGU

Q: Entry under review: UUUGUCG (DNA:RNA) RNA: GGGAGACCGGAAUUCAGAUUGUCCUUUGUCGUUAAAUCCCGUCGUAGCCACCA DNA 1: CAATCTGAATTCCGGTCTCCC DNA 2: TGGTGGCTACGACGGGATT . Reported binding signal?
Ans: 0.0272 KA relative to UGCAUGU

Q: Entry under review: GUAUUGC (DNA:RNA) RNA: GGGAGACCGGAAUUCAGAUUGUCCGUAUUGCUUAAAUCCCGUCGUAGCCACCA DNA 1: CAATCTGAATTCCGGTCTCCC DNA 2: TGGTGGCTACGACGGGATT . Reported binding signal?
Ans: 0.0151 KA relative to UGCAUGU

Q: Entry under review: CAGCUCA (DNA:RNA) RNA: GGGAGACCGGAAUUCAGAUUGUCCCAGCUCAUUAAAUCCCGUCGUAGCCACCA DNA 1: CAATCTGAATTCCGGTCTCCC DNA 2: TGGTGGCTACGACGGGATT . Reported binding signal?
Ans: 0.00282 KA relative to UGCAUGU
